Please go through the items and note down their PBM binding z-score.
- Test system: LXRb homodimer (NR concentration 270 nM)
- assay_notes: PBM binding z-score (relative to random genomic background probes); higher = stronger binding; sequences stand for … in GC…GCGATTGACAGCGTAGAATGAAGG
Write no unit; give the number alone.

Query: What PBM binding z-score value was documented for this sequence, GCTGCTAGGTCAGCTGATGGTCAGCTAAAGCTCG ?
Response: -1.13

Query: Also, CGTCCAAGGTCAGCAGGTCAGTGAAAGCGACGTG please.
Response: -0.277

Query: Also, GCTAGCAGGCCATTTCGGTCACTCAATGACGGGC please.
Response: -0.792

Query: Also, GCTGCTAGATCAGGTTGGTCAGCTAACGGGTACG please.
Response: -0.822

Query: Also, TCTCGGAGGACACGAAAGGCCAGAGCTCGACATC please.
Response: -1.2

Query: Also, CTACCAAGGTGAACAAGATCGTTGATTACTATTC please.
Response: -0.457

Query: Also, TAGCATAGGTCATTCAGGGGCCAGTATAGAAAGC please.
Response: 1.73

Query: Also, GCGACTGGGGCTTCAGCAGGTTACCATAACTTAA please.
Response: -0.572

Query: Also, AGTCAAAGTTCAGGACGAGGTAAGGTAAAGCACG please.
Response: 0.293

Query: Also, CCTACTAGGCCAAAAAGGTCATTGATGCCGATAA please.
Response: 0.985

Query: Also, ATCTATAGGTAAAAGTTCAGTGAATCCCGAGGAT please.
Response: 0.602

Query: Also, ATCTCTAGGTAAAAGTTCCGTGAATCCCGAGGAT please.
Response: 0.845

* * *

- System: PPARg:RXRa DBDmut IVT, anti-RXR (DBD mutation: RXRa K156A/R161A, NR concentration 270 nM, RXRa partner concentration 90 nM)
- assay_notes: PBM binding z-score (relative to random genomic background probes); higher = stronger binding; sequences stand for … in GC…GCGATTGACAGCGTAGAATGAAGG
Rule: PBM binding z-score of 3 or more gives MET; anything lower gives NOT MET.

Query: Item CGAACTAGGTCAAGGACAGTTAATCTCCGCACGC with PBM binding z-score of 3 or above?
Response: MET

Query: Also, CCGACTGGGCCAAGGTTACCATAACGCACAGCCA please.
Response: NOT MET

Query: Also, TCTAGTTGGTCACGGAGATCACACACGACGGGTA please.
Response: NOT MET

Query: Also, GCTTGTAGATCAAGGTTATGAAAGACTAAGCTAA please.
Response: NOT MET

Query: Also, TCATATAGGTAAATGCTAGGTTAAAGTCCGATCT please.
Response: MET

Query: Also, TAGCCTAGGTCAGATCGGGCCAGTACACGCTATA please.
Response: NOT MET

Query: Also, TCTAGTTGGTCACCGAGGTCACACACGACGGGTA please.
Response: NOT MET

Query: Also, GCGACTGGGGCATCAGCAGGTTACCGTAACTTAA please.
Response: MET

Query: Also, CCTCGGAGTACAGAAGGTCAGAGCTGTCCGCTTT please.
Response: NOT MET

Query: Also, AGAATGATGTTACCAAAGATCAGGGAAACGCTTG please.
Response: NOT MET

Query: Also, GCGACTGGGGCAAAGCAGCTTACCATAAGGTTGG please.
Response: MET

Query: Also, ACTATTAGATGACTTAGGGCAACCGATACGACGC please.
Response: NOT MET

* * *

- Tested on: RARg:RXRa (NR concentration 270 nM, RXRa partner concentration 90 nM)
- assay_notes: PBM binding z-score (relative to random genomic background probes); higher = stronger binding; sequences stand for … in GC…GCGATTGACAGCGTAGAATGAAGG
measurement_label: PBM binding z-score
Write no unit; give the number alone.

Query: What PBM binding z-score value was documented for this sequence, CAAACTAGGTCACAGAGTTCAAAGTCCGTGCGTA ?
Response: 6.06

Query: Also, CCTGACGGGTCACGAGGTTATAGCACGACGAGCG please.
Response: 5.83

Query: Also, ACTATGAGTTGACTTAGGGCAACCGATACGACGC please.
Response: 1.07

Query: Also, ATATGCAGGTTAGCTGGGGTCATTCAGACTAGGC please.
Response: 4.14

Query: Also, TCAGATAGGTAAATGCTAGGTGAAAGTCCGATCT please.
Response: 0.258

Query: Also, CCGACTGGGCCAAGGTCATTGATCAGTCAAAGCA please.
Response: 3.72

* * *

- System: PPARg:RXRa DBDmut IVT, anti-RXR (DBD mutation: RXRa K156A/R161A, NR concentration 270 nM, RXRa partner concentration 90 nM)
- assay_notes: PBM binding z-score (relative to random genomic background probes); higher = stronger binding; sequences stand for … in GC…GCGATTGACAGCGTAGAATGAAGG
measurement_label: PBM binding z-score
Write no unit; give the number alone.

Query: What PBM binding z-score value was documented for this sequence, ACTAGCAGGCCAAGTTTGGGTCATTCAAACAAAG ?
Response: 0.974

Query: Also, CCTCGGAGGACAACAGGAGGTCAGAGCTGCCAGA please.
Response: 0.299

Query: Also, GCTAGTTGGTTAGTAAAAGGTCACACACCGGTCG please.
Response: 0.595

Query: Also, CCTTACGGGTCACTGACAGATTATAGCATTTGGA please.
Response: 3.42

Query: Also, TCTATTTGTTGAAGGGCAACCGACGAGTCCGTTT please.
Response: 2.54

Query: Also, ACTCGGAGGACAAAGGTTAGAGCTACGCCAGTGA please.
Response: 0.161

Query: Also, CAAACTAGGTCACGAAAGCTCAAAGTCGAATGAC please.
Response: 8.36

Query: Also, GCATATAGGTAACACAAGGTGAAAGTCCGATTGT please.
Response: 5.29

Query: Also, TCACATAGGTAAAGGTGAAAGTCGAACGATATGA please.
Response: 2.47

Query: Also, CCTTACGGGTCACTGACAAGTTATAGCATTTGGA please.
Response: 3.61

Query: Also, CGTCCAAAGTCAGCAGGTCAGTGAAAGCGACGTG please.
Response: 0.261

Query: Also, ATCTCTATGTAAGACTCAGTTCAGTGAAGAACGC please.
Response: -0.194

Query: Also, CAAACTAGGTCTCGAAAGGTCAAAGTCGAATGAC please.
Response: 5.54

Query: Also, TCTATTAGTTGAAGGGCAACCGCCGAGTCCGTTT please.
Response: 2.32

Query: Also, CCTAGTTGGTCAAGGGCACACACGCTATAGGTAC please.
Response: 1.1

Query: Also, CAAACTCGGTCAAAGGTCAAAGTCGAGCCAACCA please.
Response: 5.71

Query: Also, ATCGAAAGGTCGTGAGGTTAGTATACAGAAAGGC please.
Response: 0.453

Query: Also, ATATGTAGGTTACATCCGGGTCAATCAGGCTATG please.
Response: 6.83

Query: Also, GCGACAGGGGCAAAGCAGGTTACCATAAGGTTGG please.
Response: 0.177

Query: Also, TCTTGTAGATCCATAGAGGTTAAGAAAGTGCGCT please.
Response: 1.15

Query: Also, TCTGCTAGGTGAGTTGGTCAGCTAACGAGCTGCC please.
Response: 1.24

Query: Also, ATATGTAGGTTCGCTGGGGTCATTCAGACTAGGC please.
Response: 3.5

Query: Also, CCTTACGGGTAAAGGTTATAGCACGGGTGGTACG please.
Response: -0.138

Query: Also, CAAACTATGTCACAGAGGTCAAAGTCCGTGCGTA please.
Response: 5.08

Query: Also, CCTAGTTGGTCAGGAGCTCACACACCGGATATGA please.
Response: 0.512

Query: Also, CCTTACGGGTCACGAGGTTAAAGCACGACGAGCG please.
Response: 3.53

Query: Also, GGAACGAGGGCAAGTTGATAGCTGAGTTTGATGG please.
Response: 3.45

Query: Also, CCTAGCAGGCCAGGGTCACACAAGCATTTCGCTT please.
Response: 0.592

Query: Also, ATATGTAGGATAAGGGTCATTCAGGTTGGTTCGC please.
Response: 4.06

Query: Also, TCTCGTAGATCAACAGGAGGTTAAGAAAGATCGA please.
Response: 1.41

Query: Also, AGAACGAGGGCACGCGGAGTTGATAGCAGAGTAG please.
Response: 4.28

Query: Also, CGTCCAGGGTCAAAGGTCAGTGAAGAGATGACGG please.
Response: 2.45

Query: Also, AGAACGAGGGCTCGCTGAGTTGATAGCAGAGTAG please.
Response: -0.0756

Query: Also, TCTCGGAGGACACGAAGGTCCGAGCTTTCCAGAG please.
Response: 1.24

Query: Also, TCTCGGAGGACACGAAGGTCATAGCTTTCCAGAG please.
Response: 1.58

Query: Also, TTACCAATGTGAAAGGTCGTTGATGCACGCCTTG please.
Response: 0.0484

Query: Also, CCGTCTGGGGCAAAGGTTACCATACTCAGTACGA please.
Response: 3.2

Query: Also, GGAACGTGGGCATTCGAGTTGATAGCATGGCGAT please.
Response: -0.654

Query: Also, TCGAGTAGGTAAGGGGCATTCAGAATGGCGTCGA please.
Response: 1.59

Query: Also, GATACAGGGTCAGCTAGATGCCAGAGTATGGAAA please.
Response: 1.35

Query: Also, TAGCCTAGGTCAGCTCGGGCCAGTATACGCTATA please.
Response: 1.01

Query: Also, GCTAGTTGGTCAGTAAAAGGTCACACAACGGTCG please.
Response: 0.826

Query: Also, TACACAGGGTCAAAGGCCAGAGTACGAATGTCGA please.
Response: 1.53

Query: Also, ACTATTAGTTGACTTAGGGCAACCGGTACGACGC please.
Response: 0.0602

Query: Also, CGTCAAAGTTCAACTAAGGTAACGTCAAGCACGC please.
Response: 0.771

Query: Also, GCTATTAGTTGAAAGGGCAACCGCATGATTCTCG please.
Response: 0.567

Query: Also, CCGACTGGGGCAGAAAGGTTACTATACCATCCGG please.
Response: 2.21

Query: Also, ATACCAAGGTGATCGTGATGTCGTTGATACTAAC please.
Response: 0.486

Query: Also, TCTATTAGTTGAAAGGCAACCGACGAGTCCGTTT please.
Response: 2.63

Query: Also, CCTAATGGGCCAAGGTCATTGATCAGTCAAAGCA please.
Response: 2.35

Query: Also, GCAGTCAGGTGAAACGCAGGTAACTCAGGGTGGC please.
Response: 1.84
